- assay_procedure: Pharmacokinetics in rats
- Format: in vivo
- condition_summary: rat, plasma; IV 10 mg/kg, male Sprague Dawley rats
measurement_kind: AUC(0-inf)

## Input For the compound O=C(c1ccncc1)c1cc2c(ccc3ccccc32)[nH]1 [ACT-PFK-095] , give its measured AUC(0-inf) value.
## Output 1290 ng·h/mL

* * *

- Test system: U937
- assay_procedure: Cancer cell proliferation, Alamar Blue assay, 72 hours
- Format: cell-based
- condition_summary: Homo sapiens, U-937
Record form. Attribute: pIC50. Fill in for each entry.
The scale used: pIC50 is minus the common logarithm of the concentration in molar units.

## Input Under U937: report pIC50 of O=C(c1cc[n+]([O-])cc1)c1cc2c(ccc3ccccc32)[nH]1 .
## Output 5.50

## Input Consider the molecule O=C(O)c1ccc(C(=O)c2cc3c(ccc4ccccc43)[nH]2)cc1 tested on U937; state its pIC50.
## Output 4.24

## Input Lab note: record pIC50 of O=C(c1cc2c(ccc3ccccc32)[nH]1)c1ccccc1O tested on U937.
## Output 7.12

## Input Quote pIC50 with test system U937 for COc1ccccc1C(=O)c1cc2c(ccc3ccccc32)[nH]1
## Output 7.40

## Input Enter recorded pIC50 with U937 for O=C(c1ccnc(Cl)c1)c1cc2c(ccc3ccccc32)[nH]1 here.
## Output 7.15

## Input # lookup: U937 pIC50, key = COC(=O)c1cc(C(=O)c2cc3c(ccc4ccccc43)[nH]2)ccc1OCc1ccccc1
## Output 4.57

* * *

- study_target: PFKFB3 (Homo sapiens, UniProt Q16875)
- Construct: GST
- Sequence (Q16875 whole entry, species assumed): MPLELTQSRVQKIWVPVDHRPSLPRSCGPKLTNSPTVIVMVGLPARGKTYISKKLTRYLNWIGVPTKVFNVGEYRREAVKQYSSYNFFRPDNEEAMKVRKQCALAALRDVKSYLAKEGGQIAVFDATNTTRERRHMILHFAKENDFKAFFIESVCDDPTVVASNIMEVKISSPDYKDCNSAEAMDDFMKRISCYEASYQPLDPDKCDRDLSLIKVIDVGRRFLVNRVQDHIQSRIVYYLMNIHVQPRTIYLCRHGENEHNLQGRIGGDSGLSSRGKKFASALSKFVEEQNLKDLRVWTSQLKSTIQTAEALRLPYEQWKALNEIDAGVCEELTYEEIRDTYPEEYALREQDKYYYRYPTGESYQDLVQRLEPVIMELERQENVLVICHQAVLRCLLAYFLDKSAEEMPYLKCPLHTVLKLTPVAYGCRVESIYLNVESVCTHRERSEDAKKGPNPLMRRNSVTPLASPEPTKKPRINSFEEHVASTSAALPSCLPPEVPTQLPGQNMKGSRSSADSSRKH
- assay_procedure: Inhibition of recombinant PFKFB3 kinase activity (ADP Glow assay)
- Assay type: biochemical
- condition_summary: 250 nM analog concentration; read-out: % Inhibition of PFKFB3 Enzymatic Activity
Could you please report measured inhibition at 0.25 µM for the items listed next?
Write down the numeric answer in % and omit the unit.

## Input Query inhibition at 0.25 µM for O=C(O)c1ccc(C(=O)c2cc3c(ccc4ccccc43)[nH]2)cc1
## Output 54.3

## Input Supply recorded inhibition at 0.25 µM for COc1cccc(C(=O)c2cc3c(cc(F)c4ccccc43)[nH]2)c1 here.
## Output 34.2

## Input Respond only with inhibition at 0.25 µM recorded for Nc1ccc(C(=O)c2cc3c(ccc4ccccc43)[nH]2)cc1
## Output 81.5

## Input Look up inhibition at 0.25 µM of O=C(c1ccncc1)c1cc2c(ccc3ccccc32)[nH]1 and report it.
## Output 26.2

## Input Return inhibition at 0.25 µM (reported value) for this compound: COc1cc(C(=O)c2cc3c(cc(F)c4ccccc43)[nH]2)ccc1O
## Output 3.7

## Input Provide one value: measured inhibition at 0.25 µM of O=C(c1ccc(O)cc1)c1cc2c(ccc3ccccc32)[nH]1
## Output 0

## Input Look up and state reported inhibition at 0.25 µM for Cc1ccc(C(=O)c2cc3c(ccc4ccccc43)[nH]2)cc1
## Output 19.4

## Input Give the reported inhibition at 0.25 µM for this compound. O=C(c1ccncc1)c1cc2c(cc(F)c3ccccc32)[nH]1
## Output 0

## Input Please report inhibition at 0.25 µM for the following compound: O=C(c1ccccc1)c1cc2c(ccc3ccccc32)[nH]1 [ACT-PFK-065, (3H-Benzo[e]indol-2-yl)-phenyl-methanone]
## Output 13.5

## Input Please indicate inhibition at 0.25 µM recorded for COc1cccc(C(=O)c2cc3c(ccc4ccccc43)[nH]2)c1
## Output 0
